Numbers sourced from the supplement of paper PMC10567573.

Catalogue of protein stability index values
B1: FCHO1 (parent)
chain: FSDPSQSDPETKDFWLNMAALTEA

variants of: B1; assay: protein stability index of a GFP-peptide fusion (GPS, HEK-293T) (PSI 1-6); higher = more stable; settings: c terminus: a fixed tail appended;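 further: lentivirally expressed fusions sorted by FACS into six bins by GFP to DsRed ratio, PSI derived from sequencing read proportions per bin multiplied by bin number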
METRIC_NAME: protein stability index

MUTATION_CODE: L21P
EXPERIMENTAL_RESULT: 2.32
--
MUTATION_CODE: E10D
EXPERIMENTAL_RESULT: 3
--
MUTATION_CODE: T11Y
EXPERIMENTAL_RESULT: 2.06
--
MUTATION_CODE: W15G
EXPERIMENTAL_RESULT: 4.65
--
MUTATION_CODE: A24S
EXPERIMENTAL_RESULT: 3.4
--
MUTATION_CODE: D8M
EXPERIMENTAL_RESULT: 3.04
--
MUTATION_CODE: N17L
EXPERIMENTAL_RESULT: 2.43
--
MUTATION_CODE: S5E
EXPERIMENTAL_RESULT: 4.46
--
MUTATION_CODE: M18Q
EXPERIMENTAL_RESULT: 3.77
--
MUTATION_CODE: L21N
EXPERIMENTAL_RESULT: 2.88
--
MUTATION_CODE: D8S
EXPERIMENTAL_RESULT: 2.71
--
MUTATION_CODE: Q6L
EXPERIMENTAL_RESULT: 2.55
--
MUTATION_CODE: F1N
EXPERIMENTAL_RESULT: 4.52
--
MUTATION_CODE: W15H
EXPERIMENTAL_RESULT: 4.73
--
MUTATION_CODE: S7C
EXPERIMENTAL_RESULT: 2.9
--
MUTATION_CODE: D3Q
EXPERIMENTAL_RESULT: 2.08
--
MUTATION_CODE: A20H
EXPERIMENTAL_RESULT: 2.82
--
MUTATION_CODE: S7M
EXPERIMENTAL_RESULT: 3.55
--
MUTATION_CODE: A19V
EXPERIMENTAL_RESULT: 2.25
--
MUTATION_CODE: A24R
EXPERIMENTAL_RESULT: 3.38
--
MUTATION_CODE: D13Q
EXPERIMENTAL_RESULT: 2.08
--
MUTATION_CODE: S2G
EXPERIMENTAL_RESULT: 2.32
